test system: Exophiala dermatitidis CA01; assay: Broth microdilution chequerboard analysis of Lynovex (NM001) in combination with clinical antifungals; format: cell-based; conditions: MEAN; antifungal with Lynovex (NM001); MIC100, 72 h; <0.5 Synergy, 0.5-1 Additive, >1 Indifference
readout-name: FICI

Task: Endpoint output: FICI of "OC(Cn1cncn1)(Cn1cncn1)c1ccc(F)cc1F" . Value?
Output: 0.43 (3)

Task: Thanks! And "C[C@@H]1[C@H](O)[C@@H](C)/C=C/C=C/C=C/C=C/C=C/C=C/C=C/[C@H](O[C@@H]2O[C@H](C)[C@@H](O)[C@H](N)[C@@H]2O)C[C@@H]2O[C@](O)(C[C@@H](O)C[C@@H](O)[C@H](O)CC[C@@H](O)C[C@@H](O)CC(=O)O[C@H]1C)C[C@H](O)[C@H]2C(=O)O" ?
Output: 0.53 (1)

Task: Thanks! And CCC(C)n1ncn(-c2ccc(N3CCN(c4ccc(OCC5COC(Cn6cncn6)(c6ccc(Cl)cc6Cl)O5)cc4)CC3)cc2)c1=O (stereo not shown) ?
Output: 0.19 (5)

Task: Thanks! And "CC[C@H](C)C[C@H](C)CCCCCCCCC(=O)N[C@H]1C[C@@H](O)[C@@H](NCCN)NC(=O)[C@@H]2[C@@H](O)CCN2C(=O)[C@H]([C@H](O)CCN)NC(=O)[C@H]([C@H](O)[C@@H](O)c2ccc(O)cc2)NC(=O)[C@@H]2C[C@@H](O)CN2C(=O)[C@H]([C@@H](C)O)NC1=O" ?
Output: 0.25 (1)

Reference for the values: patent US20160102052A1
